# system-under-test: proton pump (H+/K+-ATPase) (Sus scrofa)
# Construct: Gastric vesicles were prepared from hog stomach via centrifugal separation
# Sequence (P19156 whole entry): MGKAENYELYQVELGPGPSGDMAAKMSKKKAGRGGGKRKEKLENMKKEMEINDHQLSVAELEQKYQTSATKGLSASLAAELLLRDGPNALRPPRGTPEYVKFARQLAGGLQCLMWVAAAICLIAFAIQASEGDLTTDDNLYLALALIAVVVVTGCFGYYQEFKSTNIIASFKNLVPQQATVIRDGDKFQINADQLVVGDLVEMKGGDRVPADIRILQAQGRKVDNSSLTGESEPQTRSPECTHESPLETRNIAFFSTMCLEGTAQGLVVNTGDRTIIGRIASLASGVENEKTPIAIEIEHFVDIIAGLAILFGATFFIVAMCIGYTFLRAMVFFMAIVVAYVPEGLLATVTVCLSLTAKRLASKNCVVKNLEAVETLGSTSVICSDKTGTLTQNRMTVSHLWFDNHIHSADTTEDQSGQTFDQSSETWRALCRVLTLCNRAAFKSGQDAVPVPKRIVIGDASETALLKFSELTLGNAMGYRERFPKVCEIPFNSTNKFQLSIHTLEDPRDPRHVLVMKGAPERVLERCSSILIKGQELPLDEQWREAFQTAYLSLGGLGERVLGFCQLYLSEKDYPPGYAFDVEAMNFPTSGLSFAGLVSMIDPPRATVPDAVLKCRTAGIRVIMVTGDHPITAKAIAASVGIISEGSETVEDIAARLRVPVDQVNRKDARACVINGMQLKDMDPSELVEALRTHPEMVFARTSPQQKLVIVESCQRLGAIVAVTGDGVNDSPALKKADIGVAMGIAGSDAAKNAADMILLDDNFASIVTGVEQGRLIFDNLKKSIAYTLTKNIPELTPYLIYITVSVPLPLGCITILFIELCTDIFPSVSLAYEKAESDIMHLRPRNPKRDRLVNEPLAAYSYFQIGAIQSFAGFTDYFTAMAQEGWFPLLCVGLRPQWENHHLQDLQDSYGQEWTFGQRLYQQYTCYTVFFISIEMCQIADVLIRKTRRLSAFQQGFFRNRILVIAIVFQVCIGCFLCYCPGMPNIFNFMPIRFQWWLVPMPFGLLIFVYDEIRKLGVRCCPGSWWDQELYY
# Sequence (P18434 whole entry partner): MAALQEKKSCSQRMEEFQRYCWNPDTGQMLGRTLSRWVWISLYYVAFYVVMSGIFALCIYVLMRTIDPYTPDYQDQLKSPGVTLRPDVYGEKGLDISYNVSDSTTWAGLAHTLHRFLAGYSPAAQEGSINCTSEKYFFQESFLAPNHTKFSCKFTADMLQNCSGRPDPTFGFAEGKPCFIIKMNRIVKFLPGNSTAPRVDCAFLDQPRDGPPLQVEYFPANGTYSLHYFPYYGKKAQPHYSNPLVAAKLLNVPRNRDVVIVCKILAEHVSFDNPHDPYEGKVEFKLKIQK
# procedure-details: Measurement of inhibitory effects on proton pump (H+/K+-ATPase) activities
# particulars: hog gastric vesicles, K+-specific H+/K+-ATPase activity, Tris-HCl buffer pH 7.4, 37° C. for 40 minutes, malachite green Pi readout
Where a name gives a salt, the structure may show the parent alone.
pIC50: recorded values
pIC50 (log units): -log10 of the concentration in mol/L.

CNCc1cn(S(=O)(=O)c2cccnc2)c2cc(Nc3cccnc3OC)ccc12 [Example 108, hydrochloride]
5.80
CNCc1cn(S(=O)(=O)c2cccnc2)c2cc(Oc3cc(Cl)ncn3)ccc12 [Example 314, hydrochloride]
4.71
CNCc1cn(S(=O)(=O)c2cccc(OC)c2)c2cc(Cc3ccc(C)cc3Cl)ccc12
6.33

-- ask Specify reported pIC50 for the compound shown: CNCc1cn(S(=O)(=O)c2cccnc2)c2cc(Nc3ccccc3)ccc12 [Example 2, hydrochloride]
-- reply 5.94

-- ask Specify reported pIC50 for the compound shown: CNCc1cn(S(=O)(=O)c2cccnc2)c2cc(Nc3cc(OC)c(Cl)cc3Cl)ccc12 [Example 77, hydrochloride]
-- reply 6.46

-- ask Specify reported pIC50 for the compound shown: CNCc1cn(S(=O)(=O)c2cccnc2)c2cc(Nc3ccc(C)cc3F)ccc12 [Example 1, hydrochloride]
-- reply 6.74

-- ask Specify reported pIC50 for the compound shown: CNCc1cn(S(=O)(=O)c2cccc(F)c2)c2cc(Nc3ccc(F)cc3Cl)ncc12 [Example 355, hydrochloride]
-- reply 6.32
